Attribution: paper PMC6270455

Assay: Lipophilicity determination by RP-HPLC (capacity factor, log k)
Assay type: physicochemical
Conditions: RP-HPLC capacity factor logarithm; C18 column, MeOH 60% / H2O 40%, 40 °C
Assay Readout: log k

Would you please look over these solved cases?
{"columns": ["Mol Smiles", "log k"],
 "data": [
  ["O=C(Nc1ccccc1C(F)(F)F)c1cc2ccccc2cc1O", 0.8762],
  ["O=C(Nc1ccccc1[N+](=O)[O-])c1cc2ccccc2cc1O", 0.8710],
  ["O=C(Nc1cccc([N+](=O)[O-])c1)c1cc2ccccc2cc1O", 0.8143],
  ["O=C(Nc1ccccc1Cl)c1cc2ccccc2cc1O", 0.9509]
]}

(I) Cc1cccc(NC(=O)c2cc3ccccc3cc2O)c1
(II) O=C(Nc1ccc(C(F)(F)F)cc1)c1cc2ccccc2cc1O
input: Would you let me know which has the greater log k value, I or II ? Please identify the chosen entry by its label.
output: II

(1) Cc1ccccc1NC(=O)c1cc2ccccc2cc1O
(2) O=C(Nc1ccc(Br)cc1)c1cc2ccccc2cc1O
input: Field: lower log k | Options: 1 / 2 Please identify the chosen entry by its label.
output: 1
(1: 0.6936, 2: 1.1459)

(1) O=C(Nc1ccccc1Br)c1cc2ccccc2cc1O
(2) O=C(Nc1ccccc1)c1cc2ccccc2cc1O
input: Would you let me know which has the greater log k value, 1 or 2 ? Please identify the chosen entry by its label.
output: 1

(P) O=C(Nc1ccc(F)cc1)c1cc2ccccc2cc1O
(Q) O=C(Nc1cccc(Br)c1)c1cc2ccccc2cc1O
input: Field: lower log k | Options: P / Q Please identify the chosen entry by its label.
output: P

(P) O=C(Nc1cccc(F)c1)c1cc2ccccc2cc1O
(Q) O=C(Nc1cccc(C(F)(F)F)c1)c1cc2ccccc2cc1O
input: Would you let me know which has the greater log k value, P or Q ? Please identify the chosen entry by its label.
output: Q
(Q: 1.2053, P: 0.8296)

(P) COc1cccc(NC(=O)c2cc3ccccc3cc2O)c1
(Q) O=C(Nc1cccc(Cl)c1)c1cc2ccccc2cc1O
input: Field: lower log k | Options: P / Q Please identify the chosen entry by its label.
output: P

(1) O=C(Nc1ccccc1F)c1cc2ccccc2cc1O
(2) O=C(Nc1ccc(Cl)cc1)c1cc2ccccc2cc1O
input: Field: lower log k | Options: 1 / 2 Please identify the chosen entry by its label.
output: 1
(1: 0.7303, 2: 1.0687)

(a) O=C(Nc1ccc([N+](=O)[O-])cc1)c1cc2ccccc2cc1O
(b) COc1ccc(NC(=O)c2cc3ccccc3cc2O)cc1
input: Would you let me know which has the greater log k value, a or b ? Please identify the chosen entry by its label.
output: a
(a: 0.9175, b: 0.5951)
